- target.or.test.system: T1, autolytically stable caspase-1 variant (D381 E) (UniProt P29466 120-404, limits assumed)
- T1 sequence (looked up): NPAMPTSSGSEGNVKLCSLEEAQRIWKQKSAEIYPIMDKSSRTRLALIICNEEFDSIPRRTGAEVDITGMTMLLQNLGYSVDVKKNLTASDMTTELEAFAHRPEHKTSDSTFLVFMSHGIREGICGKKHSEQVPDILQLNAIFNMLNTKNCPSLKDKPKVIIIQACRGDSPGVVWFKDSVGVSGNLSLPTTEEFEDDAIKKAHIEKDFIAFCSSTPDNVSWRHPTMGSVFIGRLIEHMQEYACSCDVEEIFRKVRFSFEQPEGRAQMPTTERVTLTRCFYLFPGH
- measurement.notes: cell-based or functional assay
Numbered stars: 1 amine (or outer) side, 2 acyl side, 3 side chain; on linkers, the order of the positions; unused ones are H or OH. Square brackets hold non-standard residues; d marks the D form. Ends that are not written are not given here. * marks the point of attachment. AAsp = aza-Asp, O=C(N(CC(=O)[*:3])N[*:1])[*:2]; azaAsp = O=C(N(CC(=O)[*:3])N[*:1])[*:2]; PhPr = N-terminal cap as named (PhPr); trans‑EP‑CH2CH2Ph = not defined here; Hydrocinnamoyl = O=C(CCc1ccccc1)*; Cbz = O=C(OCc1ccccc1)*; NHBn = c1ccc(CN*)cc1
Field: k2. Provide a value for each of the binders that follow.
Please state the figure in M⁻¹ s⁻¹; there is no need to write the unit.

*Q* What value of k2 has been recorded for this entry: Cbz-DEVD (not fully specified (residue 4, C-terminus); printed as Cbz-Asp-Glu-Val-AAsp-(2R, 3R)-EP-COOEt) [Cbz-Asp-Glu-Val-AAsp-(2R, 3R)-EP-COOEt]
*A* 4320

*Q* Field request: k2 | item: Hydrocinnamoyl-Val-Ala-[AAsp]-{(R,R)‑EP‑CO-Ala-NHBn} [PhPr-Val-Ala-AAsp-(R,R)-EP-CO-Ala-NHCH2Ph]
*A* 268

*Q* Quick one: k2 of Hydrocinnamoyl-Val-Ala-[AAsp]-{trans‑EP‑CH2CH2Ph} (reading uncertain; also: printed as PhPr-Val-Ala-AAsp-trans-EP-CH2CH2Ph) [PhPr-Val-Ala-AAsp-trans-EP-CH2CH2Ph] ?
*A* 300

*Q* Which value of k2 has been reported for Hydrocinnamoyl-Val-Ala-[AAsp]-{(S,S)‑EP‑CONHCH2Ph} [PhPr-Val-Ala-AAsp-(S,S)-EP-CONHCH2Ph] in the records?
*A* 65900

*Q* Which measured k2 value corresponds to Cbz-DEV[azaAsp]-{(S,S)‑EP‑CONHCH2Ph} [Cbz-Asp-Glu-Val-AAsp-(S,S)-EP-CONHCH2Ph] ?
*A* 25400

*Q* Form field: reported k2 of PhPr-Val-Ala-[AAsp]-{(S,S)‑EP‑CO-Phe-NH2} [PhPr-Val-Ala-AAsp-(S,S)-EP-CO-Phe-NH2]
*A* 32700

*Q* Give its k2 value. Item: PhPr-Val-Ala-[AAsp]-{trans‑EP‑COOCH2Ph} [PhPr-Val-Ala-AAsp-trans-EP-COOCH2Ph]
*A* 18100

Where these numbers come from: patent US20040048327A1
